Where a SMILES comes first, the peptide text is derived from it.
Experimental endpoint: logP
// return just the number, without any unit appended

Answered cases to consult:
Prompt: Tell me measured logP for CC(C)C(N)C(=O)NC(C(=O)O)C(C)C (stereo not drawn) (H-Val-Val-OH; configuration not given here) please.
Completion: -2.82

Prompt: Hello, please tell me recorded logP for this one: CN(C(=O)CO)c1c(I)c(C(=O)NCC(O)CO)c(I)c(C(=O)NCC(O)CO)c1I (stereo not given)
Completion: -2.79

Continuing:
Prompt: Report logP, nothing else, for this molecule: `Clc1cc2c(c(Cl)c1Cl)Oc1c(Cl)ccc(Cl)c1O2`
Completion: 6.24

Prompt: Indicate the recorded logP value for this molecule: `Cc1nc2ccccc2c(=O)n1CC(=O)O`
Completion: 0.38

Prompt: Consider the molecule `CCN(CC)CCSC(=NO)c1noc(-c2ccccc2)n1` . State its measured logP.
Completion: 3.05

Prompt: Give recorded logP. `O=C(O)c1ccccc1C(c1ccc(O)cc1)c1ccc(O)cc1`
Completion: 2.61

Prompt: Return reported logP. Input molecule: `CC(=O)OCOC(=O)N(C)N=Nc1ccc(Br)cc1`
Completion: 3.64

Prompt: Give the value of logP reported for the following: CC(C)C1(C)N=C(c2ncc3ccccc3c2C(=O)O)NC1=O (stereo not given)
Completion: 1.81

Prompt: Tell us which logP value is on record for `c1ccc2c(c1)OCCOCCOc1ccccc1OCCO2`
Completion: 2.21

Prompt: Supply reported logP belonging to this molecule: `CCCOc1cccc(-c2c[nH]c(SCCc3c[nH]cn3)n2)c1`
Completion: 3.7

Prompt: Let me know recorded logP for `CC(C)(C)SSc1ncc[nH]1` , thanks.
Completion: 2.56

Prompt: Please look at this molecule and report its logP: CCCC(=O)OCC1OC(n2cc(I)c(=O)[nH]c2=O)CC1O (stereo not given)
Completion: 0.88
